# System: Chinese Hamster Ovary (CHO) cell
# procedure-text: MTT cytotoxicity in CHO cells of the test compound with and without activation by NADPH-supplemented rat liver microsomes
# Format: cell-based
# test-settings: Cricetulus griseus, CHO; supernatant after 60 min incubation with NADPH fortified rat liver microsomes; cells exposed 24 hours; MTT; mean+sd for three experiments
reported-property: pIC50
Give only the number. pIC50 is defined as minus log10 of concentration in molar units.

QUERY: May I ask what pIC50 has been recorded for COc1ccc2[nH]c(C(=O)N3CC(CCl)c4c3ccc3ccccc43)cc2c1 (stereo not shown) ?
RESULT: 7.00

====

# Tested on: Chinese Hamster Ovary (CHO) cell
# procedure-text: MTT cytotoxicity in CHO cells of the test compound with and without activation by NADPH-supplemented rat liver microsomes
# Format: cell-based
# test-settings: Cricetulus griseus, CHO; control incubate terminated at 0 time (no microsomal activation); cells exposed 24 hours; MTT; mean+sd for three experiments
reported-property: pIC50
Give only the number. pIC50 is defined as minus log10 of concentration in molar units.

QUERY: May I ask what pIC50 has been recorded for COc1ccc2[nH]c(C(=O)N3CC(CCl)c4c3ccc3ccccc43)cc2c1 (stereo not shown) ?
RESULT: 5.82

All figures here come from patent US7192977B2.
